System: Danio rerio larvae Tg(actc1b:ZsGreen-LC3), 3 dpf
test method notes: LC3 puncta relative area vs vehicle (mean) (log2 fold change); higher = more autophagy
experimental parameters: NH4Cl: + NH4Cl; 100 µM; treatment time 16 h
Kind request: treat 0.4 as inclusive, so LC3 puncta (log2) at 0.4 or higher is Satisfied, anything lower is Not satisfied.

Past entries and their recorded results:
compound: CCCCC(=O)[O-].[Na+] [Valeric acid sodium salt]
category: Not satisfied
--
compound: C/C=C\C=C\C(=O)O
category: Satisfied
--
compound: O=C(O)CC(O)C(=O)O (centres undefined)
category: Satisfied
--
compound: CCCC(=O)[O-].[Na+] [Butyric acid sodium salt]
category: Satisfied
--
compound: O=C(O)C=CC(=O)O
category: Satisfied
--
compound: CC1=C(/C=C/C(C)=C/C=C/C(C)=C/CO)C(C)(C)CCC1
category: Not satisfied
--
compound: CC1=C(/C=C/C(C)=C/C=C/C(C)=C/C=C/C=C(C)/C=C/C=C(C)/C=C/C2=C(C)CCCC2(C)C)C(C)(C)CCC1
category: Not satisfied
--
compound: O=C(O[C@@H]1Cc2c(O)cc(O)cc2O[C@@H]1c1ccc(O)c(O)c1)c1cc(O)c(O)c(O)c1 [(-)-Epicatechin gallate]
category: Satisfied
--
compound: CC(C)CC(O)C(=O)O (centres undefined) [2-Hydroxyisocaproic acid]
category: Satisfied
--
compound: C[n+]1cccc(C(=O)[O-])c1
category: Not satisfied

q: I'd appreciate it if you could say whether `CCCCCCCCCCCCCCCC(=O)O` has LC3 puncta (log2) at least equal to 0.4.
a: Not satisfied

* * *

Test system: Danio rerio larvae Tg(actc1b:ZsGreen-LC3), 3 dpf
test method notes: LC3 puncta relative area vs vehicle (mean) (log2 fold change); higher = more autophagy
experimental parameters: NH4Cl: + NH4Cl; 100 µM; treatment time 16 h
property: LC3 puncta (log2)
Lab note: record the figure alone, no unit after it.

compound: O=C1C[C@H](O)[C@@H](CO)O1
result number: 0.746

compound: NC(=O)c1cccnc1 [Nicotinamide NAM]
result number: 0.663

Next compound, please.
q: GET /values?readout=LC3 puncta (log2)&item= CCC(O)CC(=O)O (stereo not drawn) [b-Hydroxyvalerate]
a: 1.08
